Values were extracted from ChEMBL document CHEMBL3885861.

Measured DBIL, listed per entry.
- Species: Rattus norvegicus
- PROCEDURE_TEXT: Open TG-GATES - Regimen: Daily Repeat
- Format: toxicity, organism-based, Sprague-Dawley
- Parameters: regimen Daily Repeat, gender Male, age 6 weeks
- ASSAY_SETUP: in vivo, po, 0 mg/kg, […], tissue Plasma, route gavage, dose level Control, time 7 day
Reply with just the number (in mg/dL).

Here is how some compounds turned out for DBIL.
>  <COMPOUND>
CN(C)CCC(c1ccc(Cl)cc1)c1ccccn1 (stereo unspecified)

>  <UNIT_NAME>
mg/dL

>  <NUMERIC_READOUT>
0.018

$$$$
>  <COMPOUND>
CC(C)NNC(=O)c1ccncc1

>  <UNIT_NAME>
mg/dL

>  <NUMERIC_READOUT>
0

$$$$
>  <COMPOUND>
Brc1ccccc1

>  <UNIT_NAME>
mg/dL

>  <NUMERIC_READOUT>
0.012

$$$$
>  <COMPOUND>
COC(=O)C1=C(C)NC(C)=C(C(=O)OC)C1c1ccccc1[N+](=O)[O-]

>  <UNIT_NAME>
mg/dL

>  <NUMERIC_READOUT>
0.014

$$$$
>  <COMPOUND>
CN/C(=N/CCSCc1nc[nH]c1C)NC#N

>  <UNIT_NAME>
mg/dL

>  <NUMERIC_READOUT>
0.1

$$$$

Could you now look at the following compound, please?
INPUT: Which DBIL is reported for this compound? NC1=NC(=O)C(c2ccccc2)O1 (stereo unspecified)
OUTPUT: 0.022
